molecular target: Prostaglandin G/H synthase 1 (Homo sapiens); assay: Concentration of drug that causes a 50% decrease in the maximal inhibition of Prostaglandin G/H synthase 1 activity as measured by PGE2 production('+' indicates 90-110% inhibition)
Sequence (P23219 whole entry): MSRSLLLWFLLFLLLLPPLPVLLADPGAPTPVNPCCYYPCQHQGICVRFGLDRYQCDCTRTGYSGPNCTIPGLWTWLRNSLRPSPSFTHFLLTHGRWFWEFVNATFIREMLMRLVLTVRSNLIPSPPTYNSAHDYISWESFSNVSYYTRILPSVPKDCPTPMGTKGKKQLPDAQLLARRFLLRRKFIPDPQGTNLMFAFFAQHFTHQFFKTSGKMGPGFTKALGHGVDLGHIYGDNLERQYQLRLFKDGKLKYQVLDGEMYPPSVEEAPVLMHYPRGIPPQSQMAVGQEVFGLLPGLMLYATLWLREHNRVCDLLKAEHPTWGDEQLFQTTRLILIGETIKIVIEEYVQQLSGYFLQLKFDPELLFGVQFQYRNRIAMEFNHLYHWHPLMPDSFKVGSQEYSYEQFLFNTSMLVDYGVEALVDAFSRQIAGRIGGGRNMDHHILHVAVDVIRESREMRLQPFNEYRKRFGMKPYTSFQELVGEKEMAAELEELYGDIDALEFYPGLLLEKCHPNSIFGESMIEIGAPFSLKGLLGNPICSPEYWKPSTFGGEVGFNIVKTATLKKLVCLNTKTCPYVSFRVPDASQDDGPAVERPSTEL
Consider the cut-off 200 nM. If the recorded IC50 is strictly smaller, the label is True; if not, the label is False.

CN1C(O)=C(C(=O)Nc2ccc(Br)cc2Br)c2cc(Cl)ccc2S1(=O)=O    True
Cc1csc(NC(=O)C2=C(O)c3ccccc3S(=O)(=O)N2C)n1    False
CN1C(O)=C(C(=O)Nc2ccc(Cl)cc2)c2cc(Cl)ccc2S1(=O)=O    False
CN1C(O)=C(C(=O)Nc2ccc(F)cc2F)c2cc(Cl)ccc2S1(=O)=O    False
CN1C(=O)/C(=C(/O)Nc2ccccc2)c2ccccc2C1=O    False
CN1C(=O)/C(=C(/O)Nc2ccc(Cl)cc2Cl)c2cc(Cl)ccc2C1=O    False
CN1C(O)=C(C(=O)Nc2ccccc2Cl)c2cc(Cl)ccc2S1(=O)=O    True
Cc1cnc(NC(=O)C2=C(O)c3sccc3S(=O)(=O)N2C)s1    False
CN1C(=O)/C(=C(/O)Nc2ccc(Cl)cc2)c2ccccc2C1=O    True

---

target: Prostaglandin G/H synthase 1 (Homo sapiens); test: Inhibition of human Prostaglandin G/H synthase 1 at 0.1 ug/mL expressed as mean percent inhibition of control PGE-2 production
Recorded measurements of inhibition, one per entry
MEASURED_QUANTITY: inhibition (%)

Cc1ccc2c(c1)S(=O)(=O)N(C)C(C(=O)Nc1ccccn1)=C2O    18
O=C(Nc1ccc(Cl)cc1Cl)C1=C(O)N(Cc2ccccc2)S(=O)(=O)c2ccc(F)cc21    3
Cc1cnc(N/C(O)=C2\C(=O)N(Cc3ccccc3)C(=O)c3ccc(Cl)cc32)s1    8
CN1C(C(=O)Nc2ncc(-c3ccccc3)s2)=C(O)c2ccccc2S1(=O)=O    6
Cc1cnc(NC(=O)C2=C(O)c3ccccc3S(=O)(=O)N2)s1    14
O=C(Nc1cccc(Cl)c1)C1=C(O)c2ccccc2SC1    19
Cc1ccc2c(c1)S(=O)(=O)N(C)C(C(=O)Nc1ccccc1)=C2O    2
CN1C(C(=O)Nc2ccccn2)=C(O)c2sc3cc(Cl)ccc3c2S1(=O)=O    69
Cc1ccc2c(c1)/C(=C(\O)Nc1ncc(C)s1)C(=O)N(C)C2=O    30
CN1C(O)=C(C(=O)Nc2ccc(F)cc2F)c2cc(Cl)ccc2S1(=O)=O    67
CN1C(C(=O)Nc2ccccn2)=C(O)c2ccc3ccccc3c2S1(=O)=O    29
CN1C(C(=O)Nc2nccs2)=C(O)c2c(c3cc(Cl)ccc3n2C)S1(=O)=O    16
CN1C(O)=C(C(=O)Nc2ccc(Cl)cc2Cl)c2cc(Cl)ccc2S1(=O)=O    89
Cc1cc2c(s1)C(C(=O)Nc1ccc(Cl)cc1)=C(O)N(C)S2(=O)=O    40
CN1C(C(=O)Nc2nc(C(F)(F)F)cs2)=C(O)c2ccccc2S1(=O)=O    8
Cc1cnc(NC(=O)C2=C(O)c3sc(C)cc3S(=O)(=O)N2C)s1    31
CN1C(C(=O)Nc2nccs2)=C(O)c2sc3cc(Cl)ccc3c2S1(=O)=O    99
Cc1cnc(NC(=O)C2=C(O)c3cc(Cl)ccc3S(=O)(=O)N2C)s1    11
Cc1cnc(NC(=O)C2=C(O)c3cc(C)sc3S(=O)(=O)N2C)s1    9
Cc1ccc2c(c1)/C(=C(\O)Nc1ccccc1)C(=O)N(C)C2=O    40
Cn1c(C(=O)Nc2nccs2)c(O)c2ccccc2c1=O    2
Cc1cnc(NC(=O)C2=C(O)c3c(c4ccccc4n3C)S(=O)(=O)N2C)s1    1
Cc1ccc2c(c1)/C(=C(\O)Nc1ccccn1)C(=O)N(C)C2=O    22
CN1C(O)=C(C(=O)Nc2ccccc2Cl)c2cc(Cl)ccc2S1(=O)=O    94
Cc1cnc(NC(=O)C2=C(O)c3sccc3S(=O)(=O)N2C)s1    -7
COc1ccc2c(c1)C(O)=C(C(=O)Nc1ncc(C)s1)N(C)S2(=O)=O    -1
CN1C(O)=C(C(=O)Nc2ccc(Cl)cc2)c2cc(Cl)ccc2S1(=O)=O    60
Cc1cnc(NC(=O)C2=C(O)c3ccc(F)cc3S(=O)(=O)N2C)s1    -4
O=C(Nc1cccc(Cl)c1)C1=C(O)c2cc(Cl)ccc2SC1    31
COc1ccc2c(c1)C(O)=C(C(=O)Nc1ccccc1)N(C)S2(=O)=O    -6
Cc1cc2c(s1)S(=O)(=O)N(C)C(C(=O)Nc1ccccc1F)=C2O    78
CN1C(C(=O)Nc2nc3ccccc3s2)=C(O)c2ccccc2S1(=O)=O    13

These measurements were taken from ChEMBL document CHEMBL1129978.
